Target: HLA-DR DRB4*0101 (human)
Assay: competition vs 125I-labeled peptide, purified HLA
Label Yes when IC50 is strictly below 800 nM; at or above that, label No.

binder: IYQILSIYSTVASSLA (modifications not checked) [Flu.HA.529]
answer-label: Yes
//
binder: PTTYISVGTSTLNQRL (modifications not checked) [Flu.HA.210]
answer-label: Yes
//
binder: CPKYVKSNRLVLATGL (modifications not checked) [Flu.HA.318]
answer-label: Yes

API: the following record is the query input.
Input line: In the record for VVWLIKKNSTYPTIKR (modifications not checked) [Flu.HA.163] , is IC50 less than 800 nM?
Output line: No
